// provenance: patent US11149031B2

target: His6-ERα298-554 WT (ERα ligand-binding domain) (Homo sapiens (Human)); experiment: Test A: biochemical antagonist activity, LanthaScreen TR-FRET ERα coactivator assay, WT; details: protocol with 3 nM estradiol; read-out: Antagonism WT IC50
Sequence (P03372 298-554): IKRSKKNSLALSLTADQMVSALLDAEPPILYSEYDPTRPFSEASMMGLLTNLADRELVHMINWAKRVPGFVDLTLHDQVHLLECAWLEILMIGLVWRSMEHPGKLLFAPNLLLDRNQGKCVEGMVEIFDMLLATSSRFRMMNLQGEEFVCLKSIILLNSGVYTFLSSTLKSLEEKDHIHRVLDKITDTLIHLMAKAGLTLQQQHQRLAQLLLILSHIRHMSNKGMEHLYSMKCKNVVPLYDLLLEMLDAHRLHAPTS
// NB: equality with 30 nM counts as Not fulfilled; only IC50 strictly below is Fulfilled

mol smiles: Oc1ccc2c(c1)OCCC(c1ccc3cc[nH]c3c1)=C2c1ccc(O[C@H]2CCN(CCCF)C2)cc1
class label: Not fulfilled

mol smiles: Oc1ccc2c(c1Cl)OCCC(c1ccc3[nH]ccc3c1)=C2c1ccc(O[C@H]2CCN(CCCF)C2)cc1
class label: Fulfilled

mol smiles: Cc1cc2c(cc1O)OCCC(c1cccc(Cl)c1C)=C2c1ccc(O[C@H]2CCN(CCCF)C2)cc1
class label: Fulfilled

mol smiles: Oc1ccc2c(c1)C(c1ccc(O[C@H]3CCN(CCCF)C3)cc1)=C(c1ccc3[nH]ccc3c1)CC2
class label: Fulfilled

mol smiles: Cc1ccc(C2=C(c3ccc(O[C@H]4CCN(CCCF)C4)cc3)c3cc(C)c(O)cc3OCC2)c(F)c1
class label: Not fulfilled

mol smiles: Oc1ccc2c(c1)OCCC(c1ccc(Cl)c(F)c1)=C2c1ccc(O[C@H]2CCN(CCCF)C2)cc1
class label: Not fulfilled

mol smiles: Cc1ccc(C2=C(c3ccc(O[C@H]4CCN(CCCF)C4)cc3)c3ccc(O)cc3S(=O)(=O)CC2)c(F)c1
class label: Fulfilled

mol smiles: Oc1ccc2c(c1)SCC(c1ccc(Cl)cc1F)=C2c1ccc(O[C@H]2CCN(CCCF)C2)cc1
class label: Fulfilled

mol smiles: Oc1ccc2c(c1)OCCC(c1ccc3occc3c1)=C2c1ccc(O[C@H]2CCN(CCCF)C2)cc1
class label: Fulfilled

mol smiles: Cc1cccc(C2=C(c3ccc(O[C@H]4CCN(CCCF)C4)cc3)c3ccc(O)cc3OCC2)c1C
class label: Fulfilled

mol smiles: CCOc1ccc(C2=C(c3ccc(O[C@H]4CCN(CCCF)C4)cc3)c3ccc(O)cc3OCC2)cn1
class label: Fulfilled

mol smiles: Oc1ccc2c(c1)SCC(c1ccc(OC(F)(F)F)cc1F)=C2c1ccc(O[C@H]2CCN(CCCF)C2)cc1
class label: Not fulfilled

mol smiles: Cc1c(F)cccc1C1=C(c2ccc(O[C@H]3CCN(CCCF)C3)cc2)c2ccc(O)cc2OCC1
class label: Fulfilled

mol smiles: Cc1cc(C2=C(c3ccc(O[C@H]4CCN(CCCF)C4)cc3)c3ccc(O)cc3S(=O)(=O)CC2)ccc1Cl
class label: Fulfilled

mol smiles: Oc1ccc2c(c1)SCCC(c1ccc(Cl)cc1F)=C2c1ccc(O[C@H]2CCN(CCCF)C2)cc1
class label: Fulfilled

mol smiles: Cc1cc(F)ccc1C1=C(c2ccc(O[C@H]3CCN(CCCF)C3)cc2)c2ccc(O)cc2S(=O)(=O)CC1
class label: Fulfilled

mol smiles: Cc1ccc(C2=C(c3ccc(O[C@H]4CCN(CCCF)C4)cc3)c3cc(O)ccc3SCC2)c(F)c1
class label: Fulfilled

mol smiles: Oc1ccc2c(c1F)OCCC(c1ccc3[nH]ccc3c1)=C2c1ccc(O[C@H]2CCN(CCCF)C2)cc1
class label: Fulfilled

mol smiles: Cc1c(Cl)cccc1C1=C(c2ccc(O[C@H]3CCN(CCCF)C3)cc2)c2ccc(O)c(F)c2OCC1
class label: Fulfilled

mol smiles: Oc1ccc2c(c1)SCC(c1ccc(Cl)cc1Cl)=C2c1ccc(O[C@H]2CCN(CCCF)C2)cc1
class label: Fulfilled

mol smiles: Oc1ccc2c(c1)C(c1ccc(O[C@H]3CCN(CCCF)C3)cc1)=C(c1ccc(F)cc1Cl)CCS2
class label: Fulfilled

mol smiles: Oc1ccc2c(c1)SCCC(c1cnc3c(c1)CCN3)=C2c1ccc(O[C@H]2CCN(CCCF)C2)cc1
class label: Fulfilled

mol smiles: Cc1cc(C2=C(c3ccc(O[C@H]4CCN(CCCF)C4)cc3)c3ccc(O)cc3SC2)ccc1Cl
class label: Fulfilled

mol smiles: Cc1c(O)ccc2c1OCCC(c1ccc3cc[nH]c3c1)=C2c1ccc(O[C@H]2CCN(CCCF)C2)cc1
class label: Not fulfilled

mol smiles: Cc1cc(C2=C(c3ccc(O[C@H]4CCN(CCCF)C4)cc3)c3ccc(O)cc3SCC2)ccc1Cl
class label: Fulfilled

mol smiles: Oc1ccc2c(c1)OCCC(c1cccc(F)c1Cl)=C2c1ccc(O[C@H]2CCN(CCCF)C2)cc1
class label: Fulfilled

mol smiles: Oc1ccc2c(c1)SCC(c1ccc(OC(F)F)c(F)c1)=C2c1ccc(O[C@H]2CCN(CCCF)C2)cc1
class label: Not fulfilled

mol smiles: Oc1ccc2c(c1Cl)OCCC(c1ccc3c(c1)CCN3)=C2c1ccc(O[C@H]2CCN(CCCF)C2)cc1
class label: Not fulfilled

mol smiles: Oc1cccc(C2=C(c3ccc(O[C@H]4CCN(CCCF)C4)cc3)c3ccc(O)cc3OCC2)c1
class label: Fulfilled
